The reported measurements were obtained from ChEMBL document CHEMBL1143384.

target: Trans-sialidase (Trypanosoma cruzi) (UniProt Q26966); assay: Inhibition of Trypanosoma cruzi trans-Sialidase at 0.5 mM by MuNANA assay
Sequence (Q26966 as listed by the source): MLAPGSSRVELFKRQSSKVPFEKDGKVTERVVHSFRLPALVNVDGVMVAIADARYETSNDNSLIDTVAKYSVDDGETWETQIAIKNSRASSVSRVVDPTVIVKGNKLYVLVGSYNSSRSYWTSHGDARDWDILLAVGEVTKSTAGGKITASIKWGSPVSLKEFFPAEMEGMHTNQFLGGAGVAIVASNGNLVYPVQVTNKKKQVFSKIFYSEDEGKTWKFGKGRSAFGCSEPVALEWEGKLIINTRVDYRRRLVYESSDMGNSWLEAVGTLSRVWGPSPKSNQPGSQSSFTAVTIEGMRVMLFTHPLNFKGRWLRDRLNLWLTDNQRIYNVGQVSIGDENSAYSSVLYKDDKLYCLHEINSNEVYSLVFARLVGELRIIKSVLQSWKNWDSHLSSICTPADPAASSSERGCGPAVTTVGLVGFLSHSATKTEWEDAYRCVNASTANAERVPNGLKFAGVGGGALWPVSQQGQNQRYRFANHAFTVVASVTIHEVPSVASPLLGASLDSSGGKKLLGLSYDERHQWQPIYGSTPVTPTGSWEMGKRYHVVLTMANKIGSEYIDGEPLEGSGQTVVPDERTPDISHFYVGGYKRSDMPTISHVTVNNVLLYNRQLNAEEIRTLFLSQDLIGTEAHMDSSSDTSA
Assign 1 to entries whose inhibition meets or exceeds 40%; assign 0 to the rest.

In plain terms: is recorded inhibition at least 40% for `COc1cccc(CNC(=O)Cc2c(C(=O)O)[nH]c3ccc(Cl)cc23)c1` ?
1

In plain terms: is recorded inhibition at least 40% for `COc1ccc(/C=C(\CC(=O)O)c2nc3ccccc3s2)cc1OC` ?
1

In plain terms: is recorded inhibition at least 40% for `COc1ccc(CC(=O)Nc2ccc(S(=O)(=O)Nc3nc(C)cc(C)n3)cc2)cc1` ?
1

In plain terms: is recorded inhibition at least 40% for O=c1[nH]c(O)c(C(c2ccc3c(c2)CN2CCOCC2O3)c2c(O)[nH]c(=O)[nH]c2=O)c(=O)[nH]1 (stereo not given) ?
0
